Data export: pIC50 values recorded with Large T antigen (Simian virus 40).
pIC50: −log10 of the molar value.

1) C[c-]1[c-](C)[c-](C)[c-](C)[c-]1C.[Fe].c1cc2nccc(N3CCCC3)[c-]2c1 (stereo unspecified) :: 4.76
2) O=C(O)CCC1c2cc3c4cc2OC2Oc5cc6c(cc51)C(CCC(=O)O)c1cc5c7cc1OC(O6)c1cc6cc(c1)Oc1cc(cc(C(=O)O)c1)Oc1cc8cc(c1)C(Oc1cc(c(cc1C5CCC(=O)O)C3CCC(=O)O)OC(O4)c1cc(cc(c1)Oc1cc(cc(C(=O)O)c1)O8)Oc1cc(cc(C(=O)O)c1)Oc1cc(cc2c1)Oc1cc(cc(C(=O)O)c1)O6)O7 (stereo unspecified) :: > 6.41
3) C#CCOCCOCCOCCNc1nc(N2CCN(C(=O)CCCCCCCCCCNC(=O)[C@H]([C@@H](C)CC)n3cc(CCCCN=C(N)N)nn3)CC2)nc(N2CCN(C(=O)CCCCCCCCCCNC(=O)[C@H](CCCN=C(N)N)n3cc(C[C@@H](C)CC)nn3)CC2)n1 :: 4.99

pIC50 measured on C[CH2][Hg][S]c1ccccc1C(=O)O = 4.49

pIC50 measured on C#CCOCCOCCOCCNc1nc(N2CCN(C(=O)CCCCCCCCCCNC(=O)[C@H]([C@@H](C)CC)n3cc(CCCCN=C(N)N)nn3)CC2)nc(N2CCN(C(=O)CCCCCCCCCCNC(=O)[C@H]([C@@H](C)CC)n3cc(CCCCN=C(N)N)nn3)CC2)n1 = 5.29

pIC50 measured on O=C(O)c1cc[c]([Hg][Cl])cc1 = 5.90

Reference source for all entries: PubChem BioAssay AID1903
